- test_target: T1, Ala mutant SEQ ID NO: 39 (human)
- T1 sequence (peptide): EENMDDQWMQDEAEIGY
- experimental_details: ELISA, peptide on plate (10 ug/mL)
endpoint_label: absorbance 490 nm/630 nm (OD)
# number only, unit OD dropped from output

Lab note: measured absorbance 490 nm/630 nm of G8 (antibody, IgG1, V domains shown) VH: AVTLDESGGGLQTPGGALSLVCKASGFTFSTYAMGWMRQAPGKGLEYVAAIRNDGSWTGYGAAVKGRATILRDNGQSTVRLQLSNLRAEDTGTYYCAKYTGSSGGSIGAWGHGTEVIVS VL: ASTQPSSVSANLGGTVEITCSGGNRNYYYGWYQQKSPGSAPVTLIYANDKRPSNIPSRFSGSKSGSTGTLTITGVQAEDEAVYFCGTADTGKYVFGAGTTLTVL was 1.88

Record A11 (antibody, IgG1, V domains shown) VH: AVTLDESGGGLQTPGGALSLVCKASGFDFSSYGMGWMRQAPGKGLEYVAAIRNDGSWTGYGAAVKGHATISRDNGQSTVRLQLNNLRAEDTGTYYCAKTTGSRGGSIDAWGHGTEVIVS VL: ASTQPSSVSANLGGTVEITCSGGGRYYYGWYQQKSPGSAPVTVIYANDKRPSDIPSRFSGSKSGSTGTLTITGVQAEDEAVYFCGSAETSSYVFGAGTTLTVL , field absorbance 490 nm/630 nm: 1.89

G6 (antibody, IgG1, V domains shown) VH: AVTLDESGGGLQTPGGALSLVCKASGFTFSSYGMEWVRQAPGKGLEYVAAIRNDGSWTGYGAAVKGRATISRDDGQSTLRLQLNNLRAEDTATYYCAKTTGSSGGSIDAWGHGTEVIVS VL: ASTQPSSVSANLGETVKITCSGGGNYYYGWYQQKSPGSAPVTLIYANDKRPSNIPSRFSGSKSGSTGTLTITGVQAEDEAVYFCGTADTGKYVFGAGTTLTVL yielded absorbance 490 nm/630 nm of 1.83
